The reported numbers originate from ChEMBL document CHEMBL3217723.

test: Lipophilicity, log D of the compound at pH 7.4 by shake-flask method; assay type: physicochemical; settings: buffer
Where a SMILES comes first, the peptide text is derived from it. [ ]: non-standard residue; d: D form. NMeY = CN[C@@H](Cc1ccc(O)cc1)C(=O)O; NMeCha = CN[C@@H](CC1CCCCC1)C(=O)O; NMeT = CN[C@H](C(=O)O)[C@@H](C)O; dNMeL = CN[C@H](CC(C)C)C(=O)O; NMeK = CN[C@@H](CCCCN)C(=O)O
MEASURE: logD
Keep the answer to the number alone.

Incoming: Please report the measured logD for CC(C)C[C@@H]1NC(=O)[C@H](Cc2ccc(O)cc2)N(C)C(=O)[C@H]2CCCN2C(=O)[C@H](CC(C)C)NC(=O)[C@H]([C@@H](C)O)N(C)C(=O)[C@@H](CC(C)C)N(C)C1=O (cyclo(L[dNMeL][NMeT]L[dP][NMeY]))
Outgoing: 3.17

Incoming: Please report the measured logD for CC(C)C[C@@H]1NC(=O)[C@H](Cc2ccc(O)cc2)N(C)C(=O)[C@H]2CCCN2C(=O)[C@H](CC(C)C)NC(=O)[C@H](CCCCN)N(C)C(=O)[C@@H](CC(C)C)N(C)C1=O (cyclo(L[dNMeL][NMeK]L[dP][NMeY]))
Outgoing: 0.678

Incoming: Please report the measured logD for CC(C)C[C@@H]1NC(=O)[C@H](Cc2ccc(O)cc2)N(C)C(=O)[C@H]2CCCN2C(=O)[C@H](CC(C)C)NC(=O)[C@H](CC2CCCCC2)N(C)C(=O)[C@@H](CC(C)C)N(C)C1=O (cyclo(L[dNMeL][NMeCha]L[dP][NMeY]))
Outgoing: 5.09

Incoming: Please report the measured logD for CC(C)C[C@@H]1NC(=O)[C@H](Cc2ccc(O)cc2)N(C)C(=O)[C@H]2CCCN2C(=O)[C@H](CC(C)C)NC(=O)[C@H](Cc2ccc(O)cc2)N(C)C(=O)[C@@H](CC(C)C)N(C)C1=O (cyclo(L[dNMeL][NMeY]L[dP][NMeY]))
Outgoing: 3.82
